Measured target: T1, Human ST2 (human, UniProt Q01638 19-328, limits assumed)
T1 construct: also called human ST2 protein; Interleukin 1 receptor-like 1
T1 sequence (looked up): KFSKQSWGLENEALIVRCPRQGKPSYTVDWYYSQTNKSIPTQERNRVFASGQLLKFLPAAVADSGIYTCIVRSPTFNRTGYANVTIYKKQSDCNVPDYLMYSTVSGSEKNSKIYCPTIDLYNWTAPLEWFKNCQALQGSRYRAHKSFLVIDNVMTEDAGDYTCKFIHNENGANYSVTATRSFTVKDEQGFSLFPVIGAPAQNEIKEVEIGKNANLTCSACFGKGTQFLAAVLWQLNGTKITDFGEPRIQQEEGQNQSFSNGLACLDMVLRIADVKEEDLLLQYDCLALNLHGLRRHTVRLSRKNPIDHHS
Assay procedure: SPR (Carterra), antibody immobilized, ST2 analyte
We begin with a simple list: items and their reported Kd.
# unit: nM | format: bare number

Previously resolved entries follow.
[
  {
    "Binder": "Human ST2 IgG1 Antibody 69 (antibody, V domains shown, IgG1; also called ST2 Antibody 69) VH: QVQLVQSGAEVKKPGASVKVSCKASGYTFSDYYVHWVRQAPGQGLEWMGWISAYNGNTNYAQKLQGRVTMTRDTSTSTVYMELSSLRSEDTAVYYCARGSLDIWFREPGVYMDVWGKGTTVTVSS VL: DIVMTQSPLSLPVTPGEPASISCRSSQSLLHSNGYNYLDWYLQKPGQSPQLLIYAASSLQSGVPDRFSGSGSGTDFTLKISRVEAEDVGVYYCMQALQTPITFGQGTKVEIKR",
    "Kd / nM": 71
  },
  {
    "Binder": "Human ST2 IgG1 Antibody 27 (antibody, V domains shown, IgG1; also called ST2 Antibody 27) VH: QVQLVQSGAEVKKPGASVKVSCKASGYTFTGQYMHWVRQAPGQGLEWMGIINPSGGSTSYAQKFQGRVTMTRDTSTSTVYMELSSLRSEDTAVYYCAGSYYPYYYYGMDVWGQGTTVTVSS VL: DIQMTQSPSSLSASVGDRVTITCRASQNIGYFLHWYQQKPGKAPKLLIYAASSLQSGVPSRFSGSGSGTDFTLTISSLQPEDFATYYCQQSYSPPLTFGGGTKVEIKR",
    "Kd / nM": 106
  },
  {
    "Binder": "Human ST2 IgG1 Antibody 44 (antibody, V domains shown, IgG1; also called ST2 Antibody 44) VH: EVQLLESGGGLVKPGGSLRLSCAASGFTFSSYWMSWVRQAPGKGLEWVSAISGTAINTYYADSVKGRFTISRDDSKNTLYLQMNSLKTEDTAVYYCARVRRDSSGGGAFDIWGQGTMVTVSS VL: DIQMTQSPSSLSASVGDRVTITCRASQGISNNLNWYQQKPGKAPKLLIYAASSLQTGVPSRFSGSGSGTDFTLTISSLQPEDFATYYCQQSYSTPPTFGQGTKVEIKR",
    "Kd / nM": 100
  },
  {
    "Binder": "Human ST2 IgG1 Antibody 73 (antibody, V domains shown, IgG1; also called ST2 Antibody 73) VH: EVQLLESGGGLVQPGGSLRLSCAASGFAFSSHWMHWVRQAPGKGLEWVAVISYDGSNKYYADSVKGRFTISRDNSKNTLYLQMNSLRAEDTAVYYCARDRGMIDYWGQGTLVTVSS VL: DIQMTQSPSSLSASVGDRVTITCRASQGIGSWLAWYQQKPGKAPKLLIHAATKLQTGVPSRFSGSGSGTDFTLTISSLQPEDFATYYCQQSYSTPFTFGPGTKVDIKR",
    "Kd / nM": 603
  }
]

INPUT: Query Kd for Human ST2 IgG1 Antibody 33 (antibody, V domains shown, IgG1; also called ST2 Antibody 33) VH: QVQLVQSGAEVKKPGSSVKVSCKASGDTFDTYAISWVRQAPGQGLEWMGGIIPIFGTANYAQKFQGRVTITADESTSTAYMELSSLRSEDTAVYYCARSRGRGYSYGSGLFDYWGQGTLVTVSS VL: DIVMTQSPLSLPVTPGEPASISCRSSESLLITNGFNYIDWYLQKPGQSPQLLIYLGSNRAAGVPDRFSGSGSGTDFTLKISRVEAEDVGVYYCMQALQTPITFGQGTKVEIKR
OUTPUT: 529
